The values you see were collected from PubChem BioAssay.

- TEST_PROTOCOL: sensitizers of A549 cells to miR-34 induction, primary screen, imaging, A549 dox-inducible miR-34, nuclei and caspase counts (AID 1347080); also: test concentration not given here
- MEASUREMENT_SETUP: A549 miR-34 inducible, Hoechst nuclei count, 48 h; hits give low values; cell number ratio, induced over uninduced
Activity calls are given as the source filed them.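 The calls were made as follows: active = compounds whose cell count with miR-34 switched on is under 0.7 times the count with it off; inactive = the rest.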
ASSAY_ENDPOINT: fold change

Query: Would you kindly share the measured fold change for O=C(NCC1CCOCC1)c1cnc(Nc2ccc(Cl)cc2Cl)nc1C(F)(F)F ?
Result: 0.931 (inactive)

Query: And the next one, COC(C/C=C/C=C/CC/C=C\CC(C)/C=C\C(=C/C(=O)O)CC(=O)O)/C(C)=C\C=C(/C)C(=O)O (stereo not drawn) ?
Result: 0.975 (inactive)

Query: And the next one, CN1[C@@H]2CC[C@H]1CC(OC1c3ccccc3CCc3ccccc31)C2 (stereo partly drawn) ?
Result: 0.913 (inactive)

Query: And the next one, Cn1cc(C2=C(c3cn(C4CCN(Cc5ccccn5)CC4)c4ccccc34)C(=O)NC2=O)c2ccccc21 ?
Result: 0.96 (inactive)

Query: And the next one, Ic1cncc(OC[C@@H]2CCN2)c1 ?
Result: 0.934 (inactive)

Query: And the next one, CCCCC/C=C\C/C=C\C/C=C\C/C=C\CCCC(=O)Nc1ccc2c(C)cc(=O)oc2c1 ?
Result: 0.937 (inactive)

Query: And the next one, CCCCC/C=C\C/C=C\C/C=C\C/C=C\CCCC(=O)Nc1ccc(O)cc1C ?
Result: 1.03 (inactive)

Query: And the next one, C[C@H]1CC[C@@H]2[C@@H](C)[C@H]3[C@H](C[C@H]4[C@@H]5CC=C6C[C@@H](O[C@@H]7O[C@H](CO)[C@H](O)[C@H](O[C@@H]8O[C@H](CO)[C@@H](O)[C@H](O)[C@H]8O)[C@H]7O[C@@H]7O[C@@H](C)[C@H](O)[C@@H](O)[C@H]7O)CC[C@]6(C)[C@H]5CC[C@]34C)N2C1 ?
Result: 0.926 (inactive)
